Target: mouse VISTA (mVISTA) (Mus musculus, UniProt Q9D659)
Construct: expressed in transfected cells; host or cells: Human embryonic kidney 293T cells
Sequence (Q9D659 33-308): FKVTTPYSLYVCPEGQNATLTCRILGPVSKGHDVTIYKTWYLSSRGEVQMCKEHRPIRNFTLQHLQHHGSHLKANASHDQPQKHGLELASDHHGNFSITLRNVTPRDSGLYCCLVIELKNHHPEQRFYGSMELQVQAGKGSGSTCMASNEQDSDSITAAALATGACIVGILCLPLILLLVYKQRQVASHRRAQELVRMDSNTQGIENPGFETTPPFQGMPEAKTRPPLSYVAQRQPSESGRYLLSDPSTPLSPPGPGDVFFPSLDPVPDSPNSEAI
Assay: Cell-Based Binding High-Content Assay For mVISTA (HC CBA mVISTA)
Conditions: read-out: HC CBA mVISTA IC50
Positions of bridges follow the written chain, without caps; N, C: chain ends. Non-standard residues stand in square brackets, D forms with d. Residues, ends and D or L forms follow the SMILES beside them. 2Nal = N[C@@H](Cc1ccc2ccccc2c1)C(=O)O; Ahp(2) = CCCCC[C@H](N)C(=O)O; NHexGly = CCCCCCNCC(=O)O; Nle = CCCC[C@H](N)C(=O)O; Orn = NCCC[C@H](N)C(=O)O
Entries annotated with measured IC50
Dear colleague, please send the value followed by its unit.

Compound | Target Desc | Recorded Result
CCCCCCN1CC(=O)N[C@@H](Cc2ccc(O)cc2)C(=O)N[C@@H](C(C)C)C(=O)NCC(=O)N[C@@H](CCCNC(=N)N)C(=O)N[C@@H](CC(C)C)C(=O)N[C@@H](CCCCC)C(=O)N2CCC[C@H]2C(=O)N[C@@H](C(C)C)C(=O)N[C@@H](CC(=O)O)C(=O)N[C@H](C(=O)NCC(N)=O)CSCC(=O)N[C@@H](Cc2ccccc2)C(=O)N[C@@H](Cc2ccc3ccccc3c2)C(=O)N[C@@H](CC(=O)O)C1=O [compound 1324] ({CH2CO}-F[2Nal]D[NHexGly]YVGRL[Ahp(2)]PVDCG-NH2; thioether N-14) | mouse VISTA (mVISTA) (Mus musculus, UniProt Q9D659) | 48.2 nM

Now consider the entry below.
Fill in reported IC50 for this entry: CCCCCCN1CC(=O)N[C@@H](Cc2ccc(O)cc2)C(=O)N[C@@H](CCCC)C(=O)N[C@@H](CC(=O)O)C(=O)N[C@@H](CCCN)C(=O)N[C@@H](CC(C)C)C(=O)N[C@@H](CCCCC)C(=O)N2CCC[C@H]2C(=O)N[C@@H](C(C)C)C(=O)N[C@@H](CC(=O)O)C(=O)N[C@H](C(=O)N[C@@H](CO)C(N)=O)CSCC(=O)N[C@@H](Cc2ccccc2)C(=O)N[C@@H](Cc2c[nH]c3ccccc23)C(=O)N[C@@H](CC(=O)O)C1=O [Example 1365] ({CH2CO}-FWD[NHexGly]Y[Nle]D[Orn]L[Ahp(2)]PVDCS-NH2; thioether N-14)
7.7 nM

* * *

Target: mouse VISTA (mVISTA) (Mus musculus, UniProt Q9D659)
Construct: expressed in transfected cells; host or cells: Human embryonic kidney 293T cells
Experiment: Cell-Based Binding High-Content Assay For mVISTA (HC CBA mVISTA)
Conditions: read-out: HC CBA mVISTA IC50
Positions of bridges follow the written chain, without caps; N, C: chain ends. Non-standard residues stand in square brackets, D forms with d. Residues, ends and D or L forms follow the SMILES beside them. Ahp(2) = CCCCC[C@H](N)C(=O)O; NHexGly = CCCCCCNCC(=O)O; Nle = CCCC[C@H](N)C(=O)O; Orn = NCCC[C@H](N)C(=O)O
Property: IC50

State the measured IC50 (mouse VISTA (mVISTA) (Mus musculus, UniProt Q9D659)) of CCCCCCN1CC(=O)N[C@@H](Cc2ccc(O)cc2)C(=O)N[C@@H](CCCC)C(=O)N[C@@H](CC(=O)O)C(=O)N[C@@H](CCCN)C(=O)N[C@@H](CC(C)C)C(=O)N[C@@H](CCCCC)C(=O)N2CCC[C@H]2C(=O)N[C@@H](C(C)C)C(=O)N[C@@H](CC(=O)O)C(=O)N[C@H](C(=O)N[C@@H](CC(=O)O)C(N)=O)CSCC(=O)N[C@@H](Cc2ccccc2)C(=O)N[C@@H](Cc2c[nH]c3ccccc23)C(=O)N[C@@H](CC(=O)O)C1=O [Example 1353] ({CH2CO}-FWD[NHexGly]Y[Nle]D[Orn]L[Ahp(2)]PVDCD-NH2; thioether N-14)
11.3 nM

* * *

Molecular target: mouse VISTA (mVISTA) (Mus musculus, UniProt Q9D659)
Construct: expressed in transfected cells; host or cells: Human embryonic kidney 293T cells
Assay: Cell-Based Binding High-Content Assay For mVISTA (HC CBA mVISTA)
Conditions: 293T cells expressing mouse VISTA; competition with biotinylated peptide (2 nM); read-out: HC CBA mVISTA IC50
Positions of bridges follow the written chain, without caps; N, C: chain ends. Non-standard residues stand in square brackets, D forms with d. Residues, ends and D or L forms follow the SMILES beside them. Ahp(2) = CCCCC[C@H](N)C(=O)O; NHexGly = CCCCCCNCC(=O)O
Property: IC50 (nM)
State just the number; it will be interpreted in nM.

Compound | Property | Recorded Result
CCCCCCN1CC(=O)N[C@@H](Cc2ccc(O)cc2)C(=O)N[C@@H](CC(C)C)C(=O)NCC(=O)N[C@@H](CCCNC(=N)N)C(=O)N[C@@H](CCCCN)C(=O)N[C@@H](CCCCC)C(=O)N2CCC[C@H]2C(=O)N[C@@H](C(C)C)C(=O)N[C@@H](CO)C(=O)N[C@H](C(=O)NCC(N)=O)CSCC(=O)N[C@@H](Cc2ccccc2)C(=O)N[C@@H](Cc2ccc(O)cc2)C(=O)N[C@@H](CC(=O)O)C1=O [Example 1092] ({CH2CO}-FYD[NHexGly]YLGRK[Ahp(2)]PVSCG-NH2; thioether N-14) | IC50 | 27.1

Now for another entry.
Please supply the value of reported IC50 for the item CCCCCCN1CC(=O)N[C@@H](Cc2ccc(O)cc2)C(=O)N[C@@H](CC(C)C)C(=O)N[C@@H](CC(N)=O)C(=O)N[C@@H](CCCNC(=N)N)C(=O)N[C@@H](CC(C)C)C(=O)N[C@@H](CCCCC)C(=O)N2CCC[C@H]2C(=O)N[C@@H](C(C)C)C(=O)N[C@@H](CO)C(=O)N[C@H](C(=O)NCC(=O)O)CSCC(=O)N[C@@H](Cc2ccccc2)C(=O)N[C@@H](Cc2ccc(O)cc2)C(=O)N[C@@H](CC(=O)O)C1=O [Example 1043] ({CH2CO}-FYD[NHexGly]YLNRL[Ahp(2)]PVSCG-OH; thioether N-14)
17.7

* * *

Biological target: mouse VISTA (mVISTA) (Mus musculus)
Construct: expressed in transfected cells; host or cells: Human embryonic kidney 293T cells
Experiment: Cell-Based Binding High-Content Assay For mVISTA (HC CBA mVISTA)
Conditions: cell-based binding high-content assay, mVISTA; the 16th table; read-out: HC CBA mVISTA IC50
Source text: Cell-Based Binding High-Content Assay For mVISTA Human embryonic kidney 293T cells (293T) expressing mouse VISTA (mVISTA) were used for the assessment of compounds competing with the binding of a biotinylated peptide. […] The plates were washed 3 times in dPBS, sealed, and read on a CellInsight NXT High Content Screening Platform IC903000 (Thermo Scientific). […]
Positions of bridges follow the written chain, without caps; N, C: chain ends. Non-standard residues stand in square brackets, D forms with d. Residues, ends and D or L forms follow the SMILES beside them. 2Nal = N[C@@H](Cc1ccc2ccccc2c1)C(=O)O; Ahp(2) = CCCCC[C@H](N)C(=O)O; NMeNle = CCCC[C@H](NC)C(=O)O; NHexGly = CCCCCCNCC(=O)O; Nle = CCCC[C@H](N)C(=O)O; NBuGly = CCCCNCC(=O)O
Property: IC50 (nM)
Write the number in nM without appending the unit.

Completed entries (count: 3):
Compound | Target Desc | IC50 [nM]
CCCCCCN1CC(=O)N[C@@H](Cc2ccc(O)cc2)C(=O)N[C@@H](CC(C)C)C(=O)NCC(=O)N[C@@H](CCCNC(=N)N)C(=O)N(C)[C@@H](CCCC)C(=O)N[C@@H](CCCCC)C(=O)N2CCC[C@H]2C(=O)N[C@@H](C(C)C)C(=O)N[C@@H](CO)C(=O)N[C@H](C(=O)NCC(N)=O)CSCC(=O)N[C@@H](Cc2ccc3ccccc3c2)C(=O)N[C@@H](Cc2ccc(O)cc2)C(=O)N[C@@H](CC(=O)O)C1=O [Ex 1294] ({CH2CO}-[2Nal]YD[NHexGly]YLGR[NMeNle][Ahp(2)]PVSCG-NH2; thioether N-14) | mouse VISTA (mVISTA) (Mus musculus) | 9.3
CCCCC[C@@H]1NC(=O)[C@H](CC(C)C)NC(=O)[C@H](CCCNC(=N)N)NC(=O)CNC(=O)[C@H](C(C)C)NC(=O)[C@H](Cc2ccc(O)cc2)NC(=O)CN(CCCC)C(=O)[C@H](CC(=O)O)NC(=O)[C@H](Cc2ccc(O)cc2)NC(=O)[C@H](Cc2ccc3ccccc3c2)NC(=O)CSC[C@@H](C(=O)NCC(=O)O)NC(=O)[C@H](CC(=O)O)NC(=O)[C@H](C(C)C)NC(=O)[C@@H]2CCCN2C1=O [Ex 1269] ({CH2CO}-[2Nal]YD[NBuGly]YVGRL[Ahp(2)]PVDCG-OH; thioether N-14) | mouse VISTA (mVISTA) (Mus musculus) | 15.7
CCCCCCN1CC(=O)N[C@@H](Cc2ccc(O)cc2)C(=O)N[C@@H](CC(C)C)C(=O)NCC(=O)N[C@@H](CCCNC(=N)N)C(=O)N[C@@H](Cc2ccc(O)cc2)C(=O)N[C@@H](CCCCC)C(=O)N2CCC[C@H]2C(=O)N[C@@H](C(C)C)C(=O)N[C@@H](CO)C(=O)N[C@H](C(=O)NCC(N)=O)CSCC(=O)N[C@@H](Cc2ccc3ccccc3c2)C(=O)N[C@@H](Cc2ccc(O)cc2)C(=O)N[C@@H](CC(=O)O)C1=O [Ex 1297] ({CH2CO}-[2Nal]YD[NHexGly]YLGRY[Ahp(2)]PVSCG-NH2; thioether N-14) | mouse VISTA (mVISTA) (Mus musculus) | 35.7

Quote IC50 with test system mouse VISTA (mVISTA) (Mus musculus) for CCCCCCN1CC(=O)N[C@@H](Cc2ccc(O)cc2)C(=O)N[C@@H](CCCC)C(=O)N[C@@H](CC(=O)O)C(=O)N[C@@H](CCCNC(=N)N)C(=O)N[C@@H](CC(C)C)C(=O)N[C@@H](CCCCC)C(=O)N2CCC[C@H]2C(=O)N[C@@H](C(C)C)C(=O)N[C@@H](CC(=O)O)C(=O)N[C@H](C(=O)N[C@@H](CC(=O)O)C(N)=O)CSCC(=O)N[C@@H](Cc2ccc3ccccc3c2)C(=O)N[C@@H](Cc2ccc(O)cc2)C(=O)N[C@@H](CC(=O)O)C1=O [Ex 1267] ({CH2CO}-[2Nal]YD[NHexGly]Y[Nle]DRL[Ahp(2)]PVDCD-NH2; thioether N-14)
15.3
